Origin of the recorded values: PubChem BioAssay (NCI)

So I've got a bunch of compounds here, and I need their growth values.
# Tested on: BT-549 breast
# EXPERIMENT NOTES: NCI-60 one-dose screen, 48 h (100 = growth as untreated, 0 = no growth, -100 = all killed)
# TEST SETTINGS: 10 µM unless noted
This is part of a sample that, as a whole, favours compounds with a hit. Of some 83,000 tested, about 20% had one in any assay.
Answers are plain numbers, in %.

Report growth for every entry below.
1. CC(C)(Sc1cc(C(C)(C)C)c(O)c(C(C)(C)C)c1)Sc1cc(C(C)(C)C)c(OC(=O)CCC(=O)O)c(C(C)(C)C)c1
2. COc1ccccc1S(=O)(=O)Nc1ccc2c3c(cc(CCC(=O)NCCCCNc4cccc5c4C(=O)N(C4CCC(=O)NC4=O)C5=O)cc13)C(=O)N2C (stereo unspecified)

[54.8, -10.9]

---

# System: SK-MEL-5 melanoma
# EXPERIMENT NOTES: NCI-60 one-dose screen, 48 h (100 = growth as untreated, 0 = no growth, -100 = all killed)
# TEST SETTINGS: 10 µM unless noted
The panel holds about 83,000 compounds, 20% with a hit somewhere; the sample as a whole holds those more often.
So I've got a bunch of compounds here, and I need their growth values.
Numbers only, in %.

Examples with answers:
COMPOUND	growth [%]
COc1cc2c(c(OC)c1OC)C(=O)CC(c1cccc(C(=O)Nc3ccc(C#N)cc3)c1)O2 (configuration not stated)	37.5
O=C(NCCCCO)c1cncnc1Nc1ccc2c(ccn2Cc2cccc(F)c2)c1	95.2
CCN1C(=O)N(c2ccccc2)C2NC(=S)N(/N=C/C=C/c3ccccc3OC)C21 (configuration not stated)	-14.1
NC(=O)c1ccccc1OCC(=O)Nc1ccc(Cl)c(Cl)c1	99.9
Ic1ccc(Nc2nc3nonc3nc2Nc2ccc(I)cc2)cc1	-81.2
COc1ccc(-c2nc3ccc(C)cc3c3c2c(=O)n(C)c(=O)n3C)cc1OC	103
CC12OC(CC(O)C1O)n1c3ccccc3c3c4c(c5c6ccccc6n2c5c31)C(=O)N(CCN1CCCC1)C4=O (configuration not stated)	28.9
C=C1C(=O)O[C@H]2[C@H]1CC/C(COC(=O)NCc1ccc(Cn3c(=O)sn(-c4ccc(I)cc4)c3=O)cc1)=C\CC[C@@]1(C)O[C@@H]21	98.3

Report growth for every entry below.
1. COC(=O)Cn1c2c(c3c(OC)cccc31)C(=O)c1ccccc1-2
2. COc1ccc(-c2nc(SCC(=O)Nc3nc4ccc(C)cc4s3)[nH]c(=O)c2C#N)cc1OC
3. COc1ccc2c(c1)CC[C@@H]1[C@@H]2CC[C@]2(C)c3c(cc(C#N)c4c3sc3ccccc34)C[C@@H]12
4. CNC(=O)c1cc(Oc2ccc3c(c2)sc2nc(-c4ccc(NC(=O)[C@@H](NC(=O)OC)C(C)C)cc4)cn23)ccn1

102
97.7
95.9
5.33

---

# Test system: SF-295 CNS
# EXPERIMENT NOTES: NCI-60 one-dose screen, 48 h
# TEST SETTINGS: 10 µM unless noted
Compounds without any hit were thinned out: in the full panel of roughly 83,000, 20% have a hit. Activity calls are given as the source filed them. The calls were made as follows: active = growth percent below 10; inactive = the rest.
Answer with one of the outcomes given here: active, inactive

Take a look at these entries with their results.
COMPOUND SMILES	SYSTEM UNDER TEST	QUALITATIVE LABEL
O=C1/C(=C/c2c[nH]c(=O)[nH]c2=O)SC(=S)N1Cc1ccccc1	SF-295 CNS	inactive
O=C1CCCCN1c1ccc(C2=NCCCN2)cc1	SF-295 CNS	inactive
Cc1ccc(S(=O)(=O)OCC#CCOS(=O)(=O)c2ccc(C)cc2)cc1	SF-295 CNS	inactive

Outcome? COc1cc(-c2ccc[nH]2)[nH]c1/C=C1\N=C(C)C(CC(=O)OCC(C)(C)C)=C1C
active

---

# System: OVCAR-8 ovarian
# EXPERIMENT NOTES: NCI-60 one-dose screen, 48 h
# TEST SETTINGS: 10 µM unless noted
The panel holds about 83,000 compounds, 20% with a hit somewhere; the sample as a whole holds those more often. Active and inactive are the calls of the source. Rule for the calls: active = growth percent below 10; inactive = the rest.
Answer with one of the outcomes given here: True for active, False for inactive

Take a look at these entries with their results.
COMPOUND	QUALITATIVE LABEL
CC(=O)c1ccc(-n2cc(CN3CCN(c4cc5c(cc4F)c(=O)c(C(=O)O)cn5C4CC4)CC3)nn2)cc1	False
CCOC(=O)C1=C(c2ccccc2)N=C2N(c3ccccc3)N=C(C(C)=O)N2C1c1ccc(F)cc1 (stereo unspecified)	False
CN(C)c1ccc(/C=N\NC(=O)c2ccc3nc(-c4ccc(Cl)cc4)[nH]c3c2)cc1	False

Outcome? C=C1CC[C@@H]2C(C)(C)[C@H](O)CC[C@@]2(C)[C@@H]1COc1ccc2ccc(=O)oc2c1
False

Outcome? O=S(=O)(Nc1ccc2ccccc2c1)c1ccc(-c2cnc(C3CC3)o2)cc1
False

Outcome? CNCCCNc1nc2ccccc2c2c(=O)c3cc(Cl)ccc3sc12
False

Outcome? CS(=O)(=O)c1ccc(-c2nc3ccccc3n2CC(=O)N/N=C/c2ccccc2)cc1
False

Outcome? CNC(=O)NCC1OC(n2cnc3c(NC(=O)Nc4ccccc4)ncnc32)C2OC(=O)CC12 (stereo unspecified)
False

---

# System: HOP-62 NSCLC
# EXPERIMENT NOTES: NCI-60 one-dose screen, 48 h (100 = growth as untreated, 0 = no growth, -100 = all killed)
# TEST SETTINGS: 10 µM unless noted
About 83,000 compounds went through this panel and 20% of them were active in at least one assay; those are over-represented in the sample as a whole.
MEASURE: growth (%)
Numbers only, in %.

Examples with answers:
COMPOUND	SYSTEM UNDER TEST	growth [%]
CN(C)CCC(=O)C1CC1	HOP-62 NSCLC	91.2
O=C(O)CC(C(=O)O)/C(=C\c1ccccc1)c1ccccc1 (stereo not drawn)	HOP-62 NSCLC	89.3

Kindly review the next compound as well.
Given the compound O=C1NC(=O)C(c2coc3cc(Br)ccc23)=C1c1c[nH]c2ccccc12 , what is its reported growth?
38.9

---

# Test system: KM12 colon
# EXPERIMENT NOTES: NCI-60 one-dose screen, 48 h (100 = growth as untreated, 0 = no growth, -100 = all killed)
# TEST SETTINGS: 10 µM unless noted
Compounds without any hit were thinned out: in the full panel of roughly 83,000, 20% have a hit.
MEASURE: growth (%)
One number for each entry, in %.

Examples with answers:
MOLECULE	growth / %
CCOC(=O)C1=C(CCl)N(C)C(=O)NC1c1ccc2c(c1)OCO2 (stereo not given)	73.1
NS(=O)(=O)c1ccc(C(=O)N=Nc2c(O)[nH]c3ccc(Cl)cc23)cc1	102
Cc1[nH]c(C(=O)Nc2ccccc2OC2CCN(CCN3CCOCC3)CC2)c(Cl)c1Cl	103
COC(=O)c1c(C)nc(C)c2c1C(=O)C=C(NCc1ccccc1)C2=O	83
COC(=O)c1sccc1-c1cc(O)c(C(=O)Nc2ccccc2)s1	87
COc1ccc(Oc2ccc(/C=C/C(=O)c3cc4ccccc4oc3=O)cc2)cc1	85.9
COC1C(O)CC(OC2CC(OC3CC(O[C@@H]4C(=O)c5c(cc6cc(OC7CC(OC8CC(O)C(O)C(C)O8)C(O)C(C)O7)c(C)c(O)c6c5O)CC4[C@H](OC)[C@@H](O)C(C)=O)OC(C)C3O)OC(C)C2O)OC1C (stereo not given in full)	14.7
COc1ccc(C2[C@@H](c3ccccc3)C(=O)N2c2cc(OC)c(OC)c(OC)c2)cc1F (stereo not given in full)	13.2
O=S(=O)(Nc1cc(F)cc(F)c1)c1ccc(-c2cnc(C3CC3)o2)cc1	19.2
C=C(c1ccc(C(=O)O)c(F)c1)c1cc2c(cc1C)C(C)(C)CCC2(C)C	69.2

Report growth for every entry below.
1. COc1cc(-c2cc(-c3ccc(Nc4nc(Nc5ccc(Cl)cc5)nc(Nc5ccc(Cl)cc5)n4)cc3)no2)cc(OC)c1OC
2. Cc1ccc(NC(=O)c2cc3ccccc3cc2O)c(C)c1
3. Nc1cc(Br)cc2c1[nH]c(=O)c1ccccc12
4. O=C(Nc1nc(Cl)nc(Nc2ccc(N3CCOCC3=O)cc2)n1)c1ccc(Cl)s1
5. C=C(C)[C@@H]1CC[C@]2(CO)CC[C@]3(C)[C@H](CC[C@@H]4[C@@](C)(CCCN)[C@H](C(=C)C)CC[C@]43C)[C@@H]12
6. CCN(CC)CCOc1ccc2ccc(=O)oc2c1

1. 83.8
2. 83.1
3. 104
4. 90.6
5. -79.6
6. 103

Report growth for every entry below.
1. COCCn1cc(-c2nc(-c3c[nH]c4ncccc34)cs2)c2ccccc21
2. COCCn1cc(-c2nc(-c3cn(CCOC)c4ncccc34)cs2)c2cc(F)ccc21
3. C=C1C(=O)O[C@H]2[C@H]1CC/C(COC(=O)NCc1ccc(Cn3c(=O)sn(-c4ccccc4)c3=O)cc1)=C\CC[C@@]1(C)O[C@@H]21
4. COc1cc2c(c(OC)c1OC)C(=O)CC(c1cccc(C(=O)Nc3ccccc3Br)c1)O2 (stereo not given)

16.4
10.6
96.8
93.5
